Consider the following variants; for each one, report its polymerase ribozyme fitness (log ratio).
B1: TPR 5TU (parent)
chain: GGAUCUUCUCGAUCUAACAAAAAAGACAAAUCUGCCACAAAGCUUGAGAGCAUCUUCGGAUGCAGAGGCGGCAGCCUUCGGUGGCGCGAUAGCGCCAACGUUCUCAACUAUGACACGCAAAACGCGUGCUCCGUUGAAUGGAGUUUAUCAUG

Variants of: B1
Experiment: polymerase ribozyme fitness, log enrichment relative to wild type (log ratio); higher = more active; in vitro selection for triplet polymerase activity
Fewer inactive variants are shown than the library holds.
Keep the answer to the number alone.

Reported polymerase ribozyme fitness (log ratio), variant U55C G92C : ____
-0.135

Also need U55A A73G , thanks.
-0.446

Quick one: A39G G94C
-2.32

C27U C57A C95U , same question.
-2.1

What do you get for C99U G136A ?
0.0423

Now try A52G A89U G124U G136C .
-3.18

Every entry's value here was drawn from the RNAGym collection of RNA variant scans (doi:10.1073/pnas.2313332121).
